assay explanation: In vitro cytotoxicity, MTT cell viability assay in HepG2 cells
Format: cell-based
condition set: human, Cytotoxicity CC50
result type: CC50 at 7 days

compound: Cc1cc(NC(=O)c2ccc(F)c(C(F)(F)C(=O)N3CCC(O)C(F)(F)C3)c2)cc(F)c1F (stereo not shown) [Example 250]
CC50 at 7 days: 5 to 30 µM
//
compound: Cc1cc(NC(=O)c2ccc(F)c(C(F)(F)C(=O)N3[C@@H]4CC[C@H]3CC(O)(CN)C4)c2)ccc1F (stereo partly shown) [Example 276]
CC50 at 7 days: 5 to 30 µM
//
compound: Cc1cc(NC(=O)c2ccc(F)c(C(F)(F)C(=O)Nc3nc4c(s3)CCNC4)c2)ccc1F [Example 309]
CC50 at 7 days: 5 to 30 µM

Enquiry: Complete the entry with CC50 at 7 days for Cc1cc(NC(=O)c2cnc(C(F)(F)C(=O)N3CCC(O)CC3)s2)ccc1F [Example 44]
Return: > 30 µM

---

Below, each entry is listed with its recorded CC50 at 7 days.
assay explanation: In vitro cytotoxicity, MTT cell viability assay in HepG2 cells
Assay type: cell-based
condition set: human, Cytotoxicity CC50

# annotated cases, reported CC50 at 7 days shown
compound: CC(=O)N[C@@H]1CC2CC[C@H](C1)N2C(=O)C(F)(F)c1cc(C(=O)Nc2ccc(F)c(C)c2)ccc1F
CC50 at 7 days: 5 to 30 µM
--
compound: Cn1cc(C(=O)Nc2ccc(F)c(Cl)c2)cc1C(F)(F)C(=O)N[C@@H]1CCOC1
CC50 at 7 days: > 30 µM
--
compound: Cc1cc(NC(=O)c2ccc(F)c(C(F)(F)C(=O)N3CCn4c(nnc4C(F)(F)F)C3)c2)ccc1F
CC50 at 7 days: 5 to 30 µM

Enquiry: Please report the measured CC50 at 7 days for Cc1cc(NC(=O)c2ccc(F)c(C(F)(F)C(=O)NC3CCC(C(=O)O)CC3)c2)ccc1F (stereo not shown)
Return: > 30 µM

Enquiry: Given Cc1cc(NC(=O)c2ccc(F)c(C(F)(F)C(=O)N3C4CCCC3c3sc(N)nc3C4)c2)ccc1F (stereo not shown) , respond with its CC50 at 7 days.
Return: > 30 µM

Enquiry: Report measured CC50 at 7 days; entry is CC(=O)N[C@H]1CCN(C(=O)C(F)(F)c2cc(C(=O)Nc3ccc(F)c(C)c3)ccc2F)CC1(C)C
Return: > 30 µM

Enquiry: Complete the entry with CC50 at 7 days for Cc1cc(NC(=O)c2ccc(F)c(C(F)(F)C(=O)N3CC[C@H](N)C3)c2)ccc1F
Return: > 30 µM

Enquiry: Find the measured CC50 at 7 days of Cc1cc(NC(=O)c2csc(C(F)(F)C(=O)N3CCC(O)CC3)n2)ccc1F and report it.
Return: 5 to 30 µM

Enquiry: State its CC50 at 7 days for this compound: Cc1cc(NC(=O)c2ccc(Cl)c(C(F)(F)C(=O)N3CC[C@@H](O)[C@H](O)C3)c2)ccc1F (racemic)
Return: > 30 µM

Enquiry: Recall and state the measured CC50 at 7 days for Cc1cc(NC(=O)c2ccc(F)c(C(F)(F)C(=O)N3CCc4nc(N)sc4C3)n2)ccc1F .
Return: 5 to 30 µM

Enquiry: Recall and state the measured CC50 at 7 days for O=C(Nc1ccc(F)c(F)c1)c1ccc(F)c(C(F)(F)C(=O)N2CCCC(CO)C2)c1 (stereo not shown) .
Return: > 30 µM

Enquiry: Look up and state reported CC50 at 7 days for Cc1cc(NC(=O)c2ccn(C)c2C(F)(F)C(=O)N[C@@H]2CCCC[C@H]2O)ccc1F
Return: > 30 µM
